Species: Homo sapiens
test: Selectivity ratio of relative binding affinity for human recombinant ERalpha receptor to relative binding affinity for human recombinant ERbeta receptor
The entries below come with measured Ratio values attached.
API note: the answer field is a bare number with no unit suffix.

Worked cases, Ratio given:
{"columns": ["smiles-structure", "Ratio"],
 "data": [
  ["O=C(c1ccccc1)N(c1ccc(O)cc1)c1ccc(O)cc1", 6.52],
  ["Oc1ccc(N(c2ccccc2)c2ccc(O)cc2)cc1", 1.48],
  ["Oc1ccc(N(c2ccc(O)cc2)C2CCCCC2)cc1", 3.8],
  ["O=S(=O)(c1ccc(O)cc1)N(c1ccc(O)cc1)c1ccc(O)cc1", 0.011],
  ["Oc1ccc(N(CCC2CCCCC2)c2ccc(O)cc2)cc1", 1.88],
  ["Oc1ccc(CN(c2ccc(O)cc2)c2ccc(O)cc2)cc1", 0.951],
  ["Oc1ccc(N(CC2CCCCC2)c2ccc(O)cc2)cc1", 7.52],
  ["O=C(c1ccc(O)cc1)N(c1ccc(O)cc1)c1ccc(O)cc1", 0.188],
  ["Oc1ccc(N(CC23CC4CC(CC(Br)(C4)C2)C3)c2ccc(O)cc2)cc1", 1.02],
  ["CC(C)CCN(c1ccc(O)cc1)c1ccc(O)cc1", 18.1]
]}

Specify Ratio for Oc1ccc(N(Cc2ccccc2)c2ccc(O)cc2)cc1 and stop. 27.7

Input CCCCCCN(c1ccc(O)cc1)c1ccc(O)cc1 , output reported Ratio. 0.667

* * *

experimental-system: Estrogen receptor beta (Homo sapiens) (UniProt Q92731)
Sequence (Q92731 whole entry): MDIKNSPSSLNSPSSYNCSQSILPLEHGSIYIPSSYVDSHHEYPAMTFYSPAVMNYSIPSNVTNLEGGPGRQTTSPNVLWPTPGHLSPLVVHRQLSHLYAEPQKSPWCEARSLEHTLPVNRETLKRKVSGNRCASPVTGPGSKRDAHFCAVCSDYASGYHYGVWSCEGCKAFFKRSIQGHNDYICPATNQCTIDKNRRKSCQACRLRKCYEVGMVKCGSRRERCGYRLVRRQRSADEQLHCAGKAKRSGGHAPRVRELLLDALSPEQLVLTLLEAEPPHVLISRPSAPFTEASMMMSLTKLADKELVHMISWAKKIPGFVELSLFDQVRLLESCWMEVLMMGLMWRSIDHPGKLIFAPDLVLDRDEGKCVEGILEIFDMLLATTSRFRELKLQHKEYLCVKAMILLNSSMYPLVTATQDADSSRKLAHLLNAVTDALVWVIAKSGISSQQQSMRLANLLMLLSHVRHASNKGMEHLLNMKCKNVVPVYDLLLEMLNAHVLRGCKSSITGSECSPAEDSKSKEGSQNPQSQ
test: Displacement of [2,4,6,7-3H]17beta-estradiol from human recombinant ERbeta receptor by liquid scintillation counter relative to 17-beta-estradiol
Outcome label depends on relative binding affinity (RBA) relative to 4: at/above gives true, below gives false.

{"columns": ["smiles-structure", "label"],
 "data": [
  ["O=S(=O)(c1ccc(O)cc1)N(c1ccc(O)cc1)c1ccc(O)cc1", "false"],
  ["O=C(c1ccccc1)N(c1ccc(O)cc1)c1ccc(O)cc1", "false"],
  ["Oc1ccc(N(c2ccc(O)cc2)C2CCCCC2)cc1", "true"]
]}

Please tell me: is the molecule Oc1ccc(N(c2ccccc2)c2ccc(O)cc2)cc1 at or over 4 in terms of relative binding affinity (RBA)? false

Kindly determine if relative binding affinity (RBA) recorded for Oc1ccc(N(CC2CCCCC2)c2ccc(O)cc2)cc1 is above or exactly 4. true

Has O=S(=O)(c1ccccc1)N(c1ccc(O)cc1)c1ccc(O)cc1 a recorded relative binding affinity (RBA) greater than or equal to 4? false

Please indicate if the recorded relative binding affinity (RBA) for O=C(c1ccc(O)cc1)N(c1ccc(O)cc1)c1ccc(O)cc1 meets or exceeds 4. false

Answer whether relative binding affinity (RBA) of CCCCCCN(c1ccc(O)cc1)c1ccc(O)cc1 is greater than or equal to 4. false

Item Oc1ccc(N(CCC2CCCCC2)c2ccc(O)cc2)cc1 with relative binding affinity (RBA) of 4 or above? true

* * *

Some molecules, each annotated with its measured relative binding affinity (RBA).
experimental-system: Estrogen receptor (Homo sapiens) (UniProt P03372)
Sequence (whole entry): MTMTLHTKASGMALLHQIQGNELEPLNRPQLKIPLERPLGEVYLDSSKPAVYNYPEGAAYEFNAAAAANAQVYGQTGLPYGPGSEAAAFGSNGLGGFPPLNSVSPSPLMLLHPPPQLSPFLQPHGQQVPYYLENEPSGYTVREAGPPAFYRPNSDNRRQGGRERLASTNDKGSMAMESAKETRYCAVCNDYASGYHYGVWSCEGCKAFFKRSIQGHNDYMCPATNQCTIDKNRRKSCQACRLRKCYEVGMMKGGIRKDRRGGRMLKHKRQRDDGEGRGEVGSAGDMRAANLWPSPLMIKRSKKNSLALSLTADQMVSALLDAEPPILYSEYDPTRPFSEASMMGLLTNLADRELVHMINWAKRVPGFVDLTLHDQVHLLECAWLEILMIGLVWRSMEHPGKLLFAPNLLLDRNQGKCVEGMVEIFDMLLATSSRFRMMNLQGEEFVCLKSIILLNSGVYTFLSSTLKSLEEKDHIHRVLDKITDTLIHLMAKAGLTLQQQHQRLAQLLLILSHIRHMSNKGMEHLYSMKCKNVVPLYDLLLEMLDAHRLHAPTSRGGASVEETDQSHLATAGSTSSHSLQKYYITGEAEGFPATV
test: Displacement of [2,4,6,7-3H]17beta-estradiol from human recombinant ERalpha receptor by liquid scintillation counter relative to 17-beta-estradiol

Consider the reported relative binding affinity (RBA) for these molecules:
{"columns": ["smiles-structure", "measurement-type", "data-value"],
 "data": [
  ["Oc1ccc(N(Cc2ccccc2)c2ccc(O)cc2)cc1", "relative binding affinity (RBA)", 0.655],
  ["CCCCCCN(c1ccc(O)cc1)c1ccc(O)cc1", "relative binding affinity (RBA)", 0.153],
  ["Oc1ccc(N(c2ccccc2)c2ccc(O)cc2)cc1", "relative binding affinity (RBA)", 1.29],
  ["CC(C)N(c1ccc(O)cc1)c1ccc(O)cc1", "relative binding affinity (RBA)", "< 0.001"],
  ["O=C(c1ccccc1)N(c1ccc(O)cc1)c1ccc(O)cc1", "relative binding affinity (RBA)", 0.193]
]}

State, in one line, measured relative binding affinity (RBA) of Oc1ccc(Nc2ccc(O)cc2)cc1 < 0.001

Query relative binding affinity (RBA) for CC(=O)N(c1ccc(O)cc1)c1ccc(O)cc1 < 0.001

* * *

experimental-system: Estrogen receptor (Homo sapiens) (UniProt P03372)
Sequence (whole entry): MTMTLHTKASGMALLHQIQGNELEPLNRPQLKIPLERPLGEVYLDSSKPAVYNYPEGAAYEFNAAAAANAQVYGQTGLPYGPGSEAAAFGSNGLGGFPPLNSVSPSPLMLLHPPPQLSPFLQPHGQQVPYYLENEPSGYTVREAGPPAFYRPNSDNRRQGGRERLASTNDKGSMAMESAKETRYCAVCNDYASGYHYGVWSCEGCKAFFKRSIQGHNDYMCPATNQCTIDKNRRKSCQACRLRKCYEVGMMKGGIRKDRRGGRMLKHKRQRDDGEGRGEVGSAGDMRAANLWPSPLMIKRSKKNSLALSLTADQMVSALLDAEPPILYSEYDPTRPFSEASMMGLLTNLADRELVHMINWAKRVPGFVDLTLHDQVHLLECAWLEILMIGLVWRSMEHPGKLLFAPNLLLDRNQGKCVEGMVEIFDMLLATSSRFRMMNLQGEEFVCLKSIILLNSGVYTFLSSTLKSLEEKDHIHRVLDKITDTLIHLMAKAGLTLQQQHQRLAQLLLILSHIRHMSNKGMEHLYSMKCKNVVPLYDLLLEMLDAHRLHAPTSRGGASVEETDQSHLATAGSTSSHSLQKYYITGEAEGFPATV
test: Displacement of [2,4,6,7-3H]17beta-estradiol from human recombinant ERalpha receptor by liquid scintillation counter relative to 17-beta-estradiol
measurement-type: relative binding affinity (RBA)
Please reply with the value in numeric form only.

As a guide, the following entries are already answered.
{"columns": ["smiles-structure", "data-value"],
 "data": [
  ["O=S(=O)(c1ccccc1)N(c1ccc(O)cc1)c1ccc(O)cc1", 0.04],
  ["O=C(c1ccc(O)cc1)N(c1ccc(O)cc1)c1ccc(O)cc1", 0.336],
  ["Oc1ccc(N(CC2CC2)c2ccc(O)cc2)cc1", 0.054],
  ["Oc1ccc(N(CCC2CCCCC2)c2ccc(O)cc2)cc1", 3.64],
  ["Oc1ccc(N(CC2CCCCC2)c2ccc(O)cc2)cc1", 0.89],
  ["O=S(=O)(c1ccc(O)cc1)N(c1ccc(O)cc1)c1ccc(O)cc1", 0.352],
  ["CC(C)CCN(c1ccc(O)cc1)c1ccc(O)cc1", 0.129],
  ["Oc1ccc(N(CC23CC4CC(CC(Br)(C4)C2)C3)c2ccc(O)cc2)cc1", 0.551],
  ["Oc1ccc(N(c2ccc(O)cc2)C2CCCCC2)cc1", 1.13]
]}

For the compound Oc1ccc(CN(c2ccc(O)cc2)c2ccc(O)cc2)cc1 , report relative binding affinity (RBA). 4.26

* * *

List of relative binding affinity (RBA) values.
experimental-system: Estrogen receptor beta (Homo sapiens) (UniProt Q92731)
test: Displacement of [2,4,6,7-3H]17beta-estradiol from human recombinant ERbeta receptor by liquid scintillation counter relative to 17-beta-estradiol
// return just the number, without any unit appended

Using known records, supply relative binding affinity (RBA) for Oc1ccc(CN(c2ccc(O)cc2)c2ccc(O)cc2)cc1 4.05

Specify relative binding affinity (RBA) for CC(C)CCN(c1ccc(O)cc1)c1ccc(O)cc1 and stop. 2.34

Supply measured relative binding affinity (RBA) of Oc1ccc(N(Cc2ccccc2)c2ccc(O)cc2)cc1 in your reply. 18.1

# return recorded relative binding affinity (RBA) for entry Oc1ccc(N(CC23CC4CC(CC(Br)(C4)C2)C3)c2ccc(O)cc2)cc1 0.565

* * *

experimental-system: Estrogen receptor beta (Homo sapiens) (UniProt Q92731)
test: Displacement of [2,4,6,7-3H]17beta-estradiol from human recombinant ERbeta receptor by liquid scintillation counter relative to 17-beta-estradiol
Each item that follows carries a reported relative binding affinity (RBA).

Here are 2 molecules together with their reported answers.
{"columns": ["smiles-structure", "relative binding affinity (RBA)"],
 "data": [
  ["CC(=O)N(c1ccc(O)cc1)c1ccc(O)cc1", "< 0.001"],
  ["CC(C)N(c1ccc(O)cc1)c1ccc(O)cc1", "< 0.001"]
]}

Now consider the entry below.
Specify measured relative binding affinity (RBA) for CS(=O)(=O)N(c1ccc(O)cc1)c1ccc(O)cc1 . < 0.001
